# Test system: NHEM-hTERT
# TEST DETAILS: cell viability relative to DMSO control (fraction of DMSO control); higher = less cytotoxic, active = 0.5 or less
# ASSAY SETUP: 1 µM; 120 h
ENDPOINT LABEL: cell viability

## Input I am curious: what cell viability value has been reported for Nc1ccn([C@@H]2O[C@H](CO)[C@@H](O)[C@@H]2O)c(=O)n1 ?
## Output 0.886 (inactive)

## Input What does the data say about its cell viability? Entry: CO[C@H]1C=CO[C@@]2(C)Oc3c(C)c(O)c4c(O)c(c(/C=N/N5CCN(C)CC5)c(O)c4c3C2=O)NC(=O)/C(C)=C\C=C/[C@H](C)[C@H](O)[C@@H](C)[C@@H](O)[C@@H](C)[C@H](OC(C)=O)[C@@H]1C
## Output 1.03 (inactive)

## Input I have this compound here, Nc1nc(=O)c2c(CCc3ccc(C(=O)N[C@@H](CCC(=O)[O-])C(=O)[O-])cc3)c[nH]c2[nH]1.[Na+].[Na+] [Pemetrexed Disodium Hydrate] , and I need its recorded cell viability.
## Output 0.995 (inactive)

## Input Given the compound CC(C)=CCC/C(C)=C/CC/C(C)=C/CC/C(C)=C/CC1=C(C)C(=O)c2ccccc2C1=O , what is its reported cell viability?
## Output 1.02 (inactive)

## Input # lookup: cell viability of Oc1cc(O)cc(/C=C/c2ccc(O)c(O)c2)c1
## Output 1.09 (inactive)

## Input Dear colleague, I am looking for the recorded cell viability of the following compound: CCCS(=O)(=O)Nc1ccc(F)c(C(=O)c2c[nH]c3ncc(-c4ccc(Cl)cc4)cc23)c1F
## Output 0.746 (inactive)

## Input If you can, please state the reported cell viability value of Nc1nc(=S)c2[nH]cnc2[nH]1 .
## Output 1.06 (inactive)

## Input I am curious: what cell viability value has been reported for O=C(O)C1CSCN1 (configuration not stated) ?
## Output 1.17 (inactive)

* * *

# Tested on: Mel-DCC-11-R
# TEST DETAILS: cell viability relative to DMSO control (fraction of DMSO control); higher = less cytotoxic, active = 0.8 or less
# ASSAY SETUP: 1 µM; 120 h; vemurafenib co-treatment 8 µM
Your answer must be one of the following: 1 (yes) for active, 0 (no) for inactive

Below are worked cases with known answers.
# COMPOUND, CLASS LABEL
rows = [
    ("Cc1c(C)c2c(c(C)c1O)CCC(C)(COc1ccc(CC3SC(=O)NC3=O)cc1)O2 (stereo unspecified)", "0 (no)"),
    ("COc1ccc2cc1Oc1ccc(cc1)C[C@H]1c3c(cc4c(c3Oc3cc5c(cc3OC)CCN(C)[C@@H]5C2)OCO4)CCN1C", "0 (no)"),
    ("S=P(N1CC1)(N1CC1)N1CC1 [Triethylenethiophosphoramide]", "0 (no)"),
    ("CC(COc1ccccc1)N(CCCl)Cc1ccccc1.Cl (stereo unspecified) [Phenoxybenzamine hydrochloride]", "0 (no)"),
]

## Input State the result this test recorded for C[C@@H](CN1CC(=O)NC(=O)C1)N1CC(=O)NC(=O)C1.Cl [Dexrazoxane HCl] .
## Output 0 (no)

* * *

# System: Mel-DCC-11
# TEST DETAILS: cell viability relative to DMSO control (fraction of DMSO control); higher = less cytotoxic, active = 0.5 or less
# ASSAY SETUP: 1 µM; 120 h
Strictly below 0.8 in cell viability: t. Otherwise: f.

Solved entries:
# COMPOUND, SYSTEM TESTED, CLASS LABEL
records = [
    ("CCCCCCCCCCCC1=C(O)C(=O)C=C(O)C1=O", "Mel-DCC-11", "f"),
    ("CC(C)(C#N)c1cc(Cn2cncn2)cc(C(C)(C)C#N)c1", "Mel-DCC-11", "f"),
    ("COc1ccc2cc1Oc1ccc(cc1)C[C@H]1c3cc(c(OC)cc3CCN1C)Oc1c(OC)c(OC)cc3c1[C@H](C2)N(C)CC3", "Mel-DCC-11", "t"),
    ("Cc1c(C)c2c(c(C)c1O)CCC(C)(COc1ccc(CC3SC(=O)NC3=O)cc1)O2 (stereo unspecified)", "Mel-DCC-11", "f"),
    ("CC1CCC(C(C)C)C(O)C1 (racemic)", "Mel-DCC-11", "f"),
]

## Input Strictly below 0.8 in cell viability? CC(=O)O[C@H]1C(=O)[C@]2(C)[C@@H](O)C[C@H]3OC[C@@]3(OC(C)=O)[C@@H]2[C@@H](OC(=O)c2ccccc2)[C@]2(O)C[C@H](OC(=O)[C@H](O)[C@@H](NC(=O)c3ccccc3)c3ccccc3)C(C)=C1C2(C)C
## Output t

## Input Lab note: confirm whether the reported cell viability for this compound is below 0.8, equality not counting. compound: CN(CCOc1ccc(CC2SC(=O)NC2=O)cc1)c1ccccn1.O=C(O)/C=C\C(=O)O (stereo unspecified) [Rosiglitazone maleate]
## Output f

## Input Problem: For the compound CC(=O)c1c(C)c2cnc(Nc3ccc(N4CCNCC4)cn3)nc2n(C2CCCC2)c1=O.Cl [Palbociclib hydrochloride] , is cell viability under 0.8?
## Output t

## Input Regarding CCCCCCCCCCCCCCCC(=O)OC/C=C(C)/C=C/C=C(C)/C=C/C1=C(C)CCCC1(C)C [Retinol palmitate] , kindly confirm whether its cell viability is beneath 0.8.
## Output t

## Input Say whether its cell viability is strictly beneath 0.8. Entry: O=C(O)CCc1nc2ccccc2[nH]1
## Output f

## Input Is 0.8 strictly greater than the compound's reported cell viability? compound: CCCc1cc(C)[nH]c(=O)c1CNC(=O)c1cc(-c2ccnc(N3CCN(C)CC3)c2)cc2c1cnn2C(C)C
## Output f

## Input Decide: cell viability of Cc1ccc(NC(=O)c2ccc(CN3CCN(C)CC3)cc2)cc1Nc1nc(-c2cccnc2)cs1 strictly below 0.8?
## Output f

## Input Lab note: cell viability threshold 0.8. Does this compound come in strictly under it? N#CC1(c2ccc(NC(=O)c3cccnc3NCc3ccncc3)cc2)CCCC1
## Output f

## Input Lab log: compare recorded cell viability with 0.8; is it strictly lower for C[C@@H](CN1CC(=O)NC(=O)C1)N1CC(=O)NC(=O)C1.Cl [Dexrazoxane HCl] ?
## Output f
